EXPERIMENTAL_SYSTEM: recombinant purified human Mi-2β protein (Homo sapiens, UniProt Q14839)
Sequence (Q14839 whole entry): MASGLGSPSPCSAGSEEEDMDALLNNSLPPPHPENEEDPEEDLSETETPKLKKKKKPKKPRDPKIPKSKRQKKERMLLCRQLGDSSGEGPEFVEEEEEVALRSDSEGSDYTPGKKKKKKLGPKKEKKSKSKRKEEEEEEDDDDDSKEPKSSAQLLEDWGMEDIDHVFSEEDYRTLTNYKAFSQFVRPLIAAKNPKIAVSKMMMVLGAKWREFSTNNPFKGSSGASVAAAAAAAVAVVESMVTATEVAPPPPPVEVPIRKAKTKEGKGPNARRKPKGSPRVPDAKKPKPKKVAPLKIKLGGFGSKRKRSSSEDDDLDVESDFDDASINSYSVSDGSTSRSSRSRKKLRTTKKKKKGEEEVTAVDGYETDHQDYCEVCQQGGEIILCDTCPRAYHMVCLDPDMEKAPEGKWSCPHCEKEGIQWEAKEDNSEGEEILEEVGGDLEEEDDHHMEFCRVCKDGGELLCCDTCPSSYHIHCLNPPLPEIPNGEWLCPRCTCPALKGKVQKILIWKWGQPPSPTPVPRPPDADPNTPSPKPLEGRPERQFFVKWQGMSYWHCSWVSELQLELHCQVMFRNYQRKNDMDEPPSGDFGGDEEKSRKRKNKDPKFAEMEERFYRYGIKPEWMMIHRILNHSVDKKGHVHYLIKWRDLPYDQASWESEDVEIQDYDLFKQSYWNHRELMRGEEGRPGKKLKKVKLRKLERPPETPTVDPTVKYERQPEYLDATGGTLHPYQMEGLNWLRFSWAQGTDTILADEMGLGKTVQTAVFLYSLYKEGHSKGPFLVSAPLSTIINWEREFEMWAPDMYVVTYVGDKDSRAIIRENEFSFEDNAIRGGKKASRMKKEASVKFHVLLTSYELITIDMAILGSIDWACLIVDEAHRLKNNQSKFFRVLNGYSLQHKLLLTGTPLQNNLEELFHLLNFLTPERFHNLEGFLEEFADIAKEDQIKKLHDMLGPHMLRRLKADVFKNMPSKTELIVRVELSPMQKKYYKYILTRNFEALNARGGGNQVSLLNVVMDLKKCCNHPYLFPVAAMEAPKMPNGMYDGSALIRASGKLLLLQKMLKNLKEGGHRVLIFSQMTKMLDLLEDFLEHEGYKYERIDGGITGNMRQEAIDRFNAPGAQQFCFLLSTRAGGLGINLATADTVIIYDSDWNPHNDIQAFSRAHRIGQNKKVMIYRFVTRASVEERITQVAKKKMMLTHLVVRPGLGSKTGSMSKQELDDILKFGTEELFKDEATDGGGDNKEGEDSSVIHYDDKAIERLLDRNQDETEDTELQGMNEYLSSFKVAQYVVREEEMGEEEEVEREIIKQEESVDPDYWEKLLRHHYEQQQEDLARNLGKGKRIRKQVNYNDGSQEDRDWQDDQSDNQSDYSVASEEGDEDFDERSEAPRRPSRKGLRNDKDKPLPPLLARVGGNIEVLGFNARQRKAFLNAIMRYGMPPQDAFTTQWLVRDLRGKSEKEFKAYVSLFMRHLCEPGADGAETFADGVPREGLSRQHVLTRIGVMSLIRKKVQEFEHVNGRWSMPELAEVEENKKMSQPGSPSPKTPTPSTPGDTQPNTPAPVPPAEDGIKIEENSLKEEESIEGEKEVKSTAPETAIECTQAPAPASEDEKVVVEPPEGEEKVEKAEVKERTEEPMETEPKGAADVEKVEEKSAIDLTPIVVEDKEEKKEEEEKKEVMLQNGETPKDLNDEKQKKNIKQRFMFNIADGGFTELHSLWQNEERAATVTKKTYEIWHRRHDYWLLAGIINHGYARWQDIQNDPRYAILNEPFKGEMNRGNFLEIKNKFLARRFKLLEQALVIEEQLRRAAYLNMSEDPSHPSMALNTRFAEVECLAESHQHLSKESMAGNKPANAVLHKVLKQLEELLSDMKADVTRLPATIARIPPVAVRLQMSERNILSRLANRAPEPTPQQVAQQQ
PROCEDURE_DETAILS: FRET-based nucleosome repositioning assay (EpiDyne-FRET)
EXPERIMENTAL_PARAMETERS: FRET-based nucleosome repositioning assay; read-out: IC50 against Mi-2β
pIC50: −log10 of the molar value.
Below, each entry is listed alongside its reported pIC50.
QUANTITY_KIND: pIC50

                                   molecule  test_value
0  Cn1c(=O)[nH]c2ncc(-c3cccc(C(=O)NC4CCn5ccnc5C4)c3)cc21 (centres unmarked)        5.16
1  Cn1c(=O)[nH]c2ccc(-c3cccc(C(=O)NC4CCn5ccnc5C4)c3)cc21 (centres unmarked)        7.09
